Recorded values, source patent US7511145B2.

Record form. Attribute: inhibition at 33 µM. Fill in for each entry.
# System Under Test: HCV-NS5b (Hepatitis C virus genotype 1b, UniProt Q9WMX2)
# Construct: (His)6 (C); made in house; host or cells: XL-1 cells (E. coli), IPTG-inducible plasmid, nickel-NTA purification
# Test Name: HCV-NS5b enzyme assay (incorporation of radiolabeled UTP)
# Assay type: biochemical
# Recorded Conditions: enzyme inhibition at compound concentration of 33 uM
Give bare numbers, in %.

Consider the reported inhibition at 33 µM for these compounds:
COc1ccc(-c2ccc(N(C)C)cc2)c(-c2ccc3cc(-c4nc5cc(C(=O)O)ccc5n4C4CCCCC4)ccc3n2)c1; 100
Cc1cc(-c2nc3cc(C(=O)O)ccc3n2C2CCCCC2)cc2ccc(-c3ccccc3)nc12; 95.6
COc1ccc(-c2ccc(Cl)cc2)c(-c2ccc3cc(-c4nc5cc(C(=O)O)ccc5n4C(C)C)ccc3n2)c1; 99.4
COc1ccc(C2CCCCC2)c(-c2ccc3cc(-c4nc5cc(C(=O)O)ccc5n4C4CCCCC4)ccc3n2)c1; 99.2
COc1ccc(-c2ccc(Cl)cc2)c(-c2ccc3cc(-c4nc5cc(C(=O)O)ccc5n4C4CCC(C)CC4)ccc3n2)c1 (stereo not drawn); 102
O=C(O)c1ccc2c(c1)nc(-c1ccc3nc(-c4cc(OCCCN5CCCC5)ccc4-c4ccccc4)ccc3c1)n2C1CCCCC1; 98

For every item in the list below, what is its measured inhibition at 33 µM?
1. COc1cc(OC)cc(-c2ccc3cc(-c4nc5cc(C(=O)O)ccc5n4C4CCCCC4)ccc3n2)c1
2. O=C(O)c1ccc2c(c1)nc(-c1ccc3nc(-c4cccc(Br)c4)ccc3c1)n2C1CCCCC1
3. O=C(O)c1ccc2c(c1)nc(-c1ccc3nc(CCCO)ccc3c1)n2C1CCCCC1
4. COc1ccc(-c2ccc(C#N)cc2)c(-c2ccc3cc(-c4nc5cc(C(=O)O)ccc5n4C4CCCCC4)ccc3n2)c1
5. COc1ccc(-c2ccc(Cl)cc2)c(-c2ccc3cc(-c4nc5cc(C(=O)O)ccc5n4C4CCCCC4C)ccc3n2)c1 (stereo not drawn)
6. C[C@@H](O)[C@H](NC(=O)c1ccc2c(c1)nc(-c1ccc3nc(-c4ccccc4)cnc3c1)n2C1CCCCC1)C(=O)O

1: 99.8; 2: 100; 3: 83.8; 4: 102; 5: 103; 6: 78.9

----------
Record form. Attribute: inhibition at 100 µM. Fill in for each entry.
# System Under Test: HCV-NS5b (Hepatitis C virus genotype 1b, UniProt Q9WMX2)
# Construct: (His)6 (C); made in house; host or cells: XL-1 cells (E. coli), IPTG-inducible plasmid, nickel-NTA purification
# Test Name: HCV-NS5b enzyme assay (incorporation of radiolabeled UTP)
# Assay type: biochemical
# Recorded Conditions: read-out: % inh@100, enzyme inhibition at compound concentration of 100 uM
Answers are plain numbers, in %.

O=C(N[C@@H](Cc1c[nH]c2ccc(O)cc12)C(=O)O)c1ccc2c(c1)nc(-c1ccc3ncc(-c4ccccc4)nc3c1)n2C1CCCCC1 [Compound 236]; 99.2
O=C(O)c1ccc2c(c1)nc(-c1cc3ccc(-c4ccccc4-c4ccccc4)nc3cc1F)n2C1CCCCC1 [Compound 388]; 98.6
O=C(O)c1ccc2c(c1)nc(-c1ccc3nc(-c4cc(O)cc(O)c4)ccc3c1)n2C1CCCCC1 [Compound 381]; 98

For every item in the list below, what is its measured inhibition at 100 µM?
1. Cc1cc(-c2ccccc2)nc2ccc(-c3nc4cc(C(=O)O)ccc4n3C3CCCCC3)cc12 [Compound 498]
2. Cc1onc(-c2ccc(Cl)cc2)c1-c1ccc2cc(-c3nc4cc(C(=O)O)ccc4n3C3CCCCC3)ccc2n1 [Compound 396]
3. COc1ccc(-c2ccc(Cl)cc2)c(-c2ccc3cc(-c4nc5cc(C(=O)O)ccc5n4C4CC4)ccc3n2)c1 [Compound 528]
4. O=C(O)C[C@H](NC(=O)c1ccc2c(c1)nc(-c1ccc3nc(-c4ccccc4)cnc3c1)n2C1CCCCC1)C(=O)O [Compound 244]

100
100
101
97
